tested on: Escherichia coli TOP10; test: shrunken log2 fold change of peptide-encoding DNA abundance (4.5 h post-induction vs induction); higher = less antimicrobial activity (less host growth inhibition); conditions: time post-induction: 4.5 h; library: site-saturation at positions 5, 18, 19, 20;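 further: peptides expressed intracellularly from a pBAD plasmid library in pooled LB shake-flask culture, induced with 0.3% L-arabinose, DNA abundance read by NGS, three biological replicates, DESeq2 with apeglm shrinkage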
MEASURED ATTRIBUTE: shrunken log2 fold change

PRIMARY SEQUENCE	MEASURED ON	TEST VALUE
RRIRPRPPRLPRPRPRPPSIPRP	Escherichia coli TOP10	-0.0949
RRIRRRPPRLPRPRPRPFLLPRP	Escherichia coli TOP10	0.0441
RRIRCRPPRLPRPRPRPRVQPRP	Escherichia coli TOP10	0.241
RRIRFRPPRLPRPRPRPMNWPRP	Escherichia coli TOP10	-0.143
RRIRDRPPRLPRPRPRPAYCPRP	Escherichia coli TOP10	0.00854
RRIRARPPRLPRPRPRPNHIPRP	Escherichia coli TOP10	-0.8
RRIRCRPPRLPRPRPRPAYYPRP	Escherichia coli TOP10	-0.476
RRIRRRPPRLPRPRPRPTCDPRP	Escherichia coli TOP10	0.502
RRIRSRPPRLPRPRPRPVHRPRP	Escherichia coli TOP10	-0.0285
RRIRVRPPRLPRPRPRPPSSPRP	Escherichia coli TOP10	0.275
RRIRNRPPRLPRPRPRPYPMPRP	Escherichia coli TOP10	0.133
RRIRRRPPRLPRPRPRPDVIPRP	Escherichia coli TOP10	-0.068
RRIRIRPPRLPRPRPRPYAMPRP	Escherichia coli TOP10	-0.411
RRIRRRPPRLPRPRPRPSWDPRP	Escherichia coli TOP10	-0.102
RRIRWRPPRLPRPRPRPMHNPRP	Escherichia coli TOP10	-0.218

Each recorded value in this set is attributed to the supplement of paper PMC9112550.
